System: HSC1
Experiment: relative IC50 (inflection point of fitted dose-response curve, CellTiter-Glo viability, 72 h; top asymptote may be below 50% inhibition); higher = less potent
VALUE_TYPE: relative IC50

Examples from the recorded data:
Task: Hi! What's the reported relative IC50 for O=NN(CCCl)C(=O)NCCCl [Carmustine] on HSC1?
Result: > 10000 nM

Task: Identify the measured relative IC50 of O=P1(NCCCl)OCCCN1CCCl (stereo not given) [Ifosfamide] for HSC1.
Result: > 10000 nM

Task: Provide value of relative IC50 for this record tested with HSC1: COC(=O)c1ccc2c(c1)NC(=O)/C2=C(\Nc1ccc(N(C)C(=O)CN2CCN(C)CC2)cc1)c1ccccc1 [Nintedanib]
Result: > 10000 nM

Task: Please tell me: relative IC50 of CCN1CCN(c2ccc(Nc3cc(N(C)C(=O)Nc4c(Cl)c(OC)cc(OC)c4Cl)ncn3)cc2)CC1 [NVP-BGJ398] , system HSC1?
Result: > 1000 nM

Task: For the record CC(C)(C)c1cnc(CSc2cnc(NC(=O)C3CCNCC3)s2)o1 [SNS-032] , what value of relative IC50 is listed for HSC1?
Result: 5.57 nM

Task: Lab note: need relative IC50 for O=C(c1ccc(C(=O)N2CCC(N3CCCC3)CC2)c(Nc2ccccc2)c1)N1CCC(N2CCCC2)CC1 [UNC1215] on HSC1, anyone have it?
Result: > 30000 nM

New cases:
Task: Checklist item: relative IC50 tested on HSC1, entry CCc1cnn2c(NCc3ccc[n+]([O-])c3)cc(N3CCCC[C@H]3CCO)nc12 [Dinaciclib] , value?
Result: 21.6 nM
